Target: TbDHFR-TS (Trypanosoma brucei brucei, UniProt Q27783)
Sequence (Q27783 whole entry): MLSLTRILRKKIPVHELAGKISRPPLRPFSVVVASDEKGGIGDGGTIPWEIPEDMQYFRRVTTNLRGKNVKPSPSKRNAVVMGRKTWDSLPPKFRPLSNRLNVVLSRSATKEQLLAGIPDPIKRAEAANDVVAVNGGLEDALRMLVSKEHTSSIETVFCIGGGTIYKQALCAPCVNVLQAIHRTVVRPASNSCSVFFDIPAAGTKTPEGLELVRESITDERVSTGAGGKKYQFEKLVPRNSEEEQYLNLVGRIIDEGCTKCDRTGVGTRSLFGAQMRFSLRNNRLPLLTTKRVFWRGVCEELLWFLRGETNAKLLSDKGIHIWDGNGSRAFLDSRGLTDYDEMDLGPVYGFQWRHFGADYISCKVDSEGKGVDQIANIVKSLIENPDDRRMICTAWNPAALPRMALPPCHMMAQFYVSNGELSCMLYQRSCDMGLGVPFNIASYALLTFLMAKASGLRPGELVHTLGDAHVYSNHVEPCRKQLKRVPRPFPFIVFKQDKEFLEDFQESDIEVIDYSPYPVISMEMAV
Assay: TbDHFR-TS inhibition, spectrophotometric DHF reduction assay (dose-response)
Settings: recombinant TbDHFR-TS; 40, 20 and 10 µM tested; standard errors within ± 10%
Quick reference: IC50 of the listed items.

Solved entries (count: 5):
compound	target-of-assay	IC50
O=C1NCCn2ccc(Nc3nc(N[C@H]4CC[C@H](O)CC4)ncc3Cl)c21 [TCMDC-143386]	TbDHFR-TS (Trypanosoma brucei brucei, UniProt Q27783)	> 40 µM
COc1ccc(Oc2ccc(C(C)N(C)c3ncc4c(N)nc(N)nc4n3)cc2)cc1 (centres unmarked) [TCMDC-143295]	TbDHFR-TS (Trypanosoma brucei brucei, UniProt Q27783)	> 40 µM
COc1ccc(C(C)N(C)c2ncc3c(N)nc(N)nc3n2)cc1F (centres unmarked) [TCMDC-143298]	TbDHFR-TS (Trypanosoma brucei brucei, UniProt Q27783)	> 40 µM
CCN(Cc1nc2ccc(C(=O)N3CCN(c4ncccn4)CC3)cc2[nH]1)C1CCCc2cccnc21 (centres unmarked) [TCMDC-143518]	TbDHFR-TS (Trypanosoma brucei brucei, UniProt Q27783)	> 40 µM
Cc1cc(N(C)C)nc2ccc(Cc3cnc(N)nc3N)cc12 [TCMDC-143611]	TbDHFR-TS (Trypanosoma brucei brucei, UniProt Q27783)	> 40 µM

# IC50 lookup, item CC(c1cc(Cl)cc(Cl)c1)N(C)c1ncc2c(N)nc(N)nc2n1 (centres unmarked) [TCMDC-143297]
11.6 µM

Can you check Cc1cc(-c2ccc3ccccc3c2)nc2nc(N)nc(N)c12 [TCMDC-143607] next?
> 40 µM

Another compound to look at: Cc1ccc2c(c1)-c1onc(C(=O)N3CCCC[C@H]3c3cccnc3)c1CO2 [TCMDC-143191]
> 40 µM

# iterate: COc1ccccc1-c1c(C)[nH]c2nc(N)nc(C)c12 [TCMDC-143610]
38.2 µM

Consider next the compound N#Cc1cccc(Nc2nccc(N3CCC(NS(=O)(=O)c4cccc(C#N)c4)CC3)n2)c1 [TCMDC-143249] in the same way.
> 40 µM

// data source = paper PMC8704748
